Each entry below lists one item and its recorded GPR10 EC50 value.
Target: T1, GPR10 (UniProt P49683 1-370, limits assumed)
T1 sequence (looked up): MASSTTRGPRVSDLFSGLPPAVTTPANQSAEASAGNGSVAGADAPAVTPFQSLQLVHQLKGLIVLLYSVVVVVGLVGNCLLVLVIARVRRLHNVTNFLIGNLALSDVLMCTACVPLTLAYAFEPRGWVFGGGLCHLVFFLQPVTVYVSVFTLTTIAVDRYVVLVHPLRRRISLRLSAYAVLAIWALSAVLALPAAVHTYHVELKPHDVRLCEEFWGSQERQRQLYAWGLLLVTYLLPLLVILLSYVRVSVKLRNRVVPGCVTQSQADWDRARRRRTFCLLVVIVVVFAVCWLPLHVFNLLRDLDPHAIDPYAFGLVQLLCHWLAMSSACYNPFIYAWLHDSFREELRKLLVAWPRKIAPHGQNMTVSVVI
Experiment: cell-based or functional assay
Bridges are numbered along the chain shown (N, C = ends). Where no end group is shown, it is not given here. [ ]: non-standard residue; d: D form. NMeR = CN[C@@H](CCCNC(=N)N)C(=O)O; hArg = N=C(N)NCCCC[C@H](N)C(=O)O; β3hR = N=C(N)NCCC[C@H](N)CC(=O)O; Nle = CCCC[C@H](N)C(=O)O; L1 = not defined here; L4 = not defined here; L5 = not defined here
// return numeric value only (unit: nM, not printed)

• SRAHQCS[Nle]ETRTCDINPAWYTG[NMeR]GIRPVGRF-NH2 (linker 6-13 via L5; reading uncertain) [Conjugate 265] = 160
• SRAHQCS[Nle]ETRTCDINPAWYTG[β3hR]GIRPVGRF-NH2 (linker 6-13 via L1; reading uncertain) [Conjugate 252] = 16

Request: What measured GPR10 EC50 goes with SRAHQCSMETRTCDINPAWYTGRGIRPVGRF-NH2 (linker 6-13 via L4; reading uncertain) [Conjugate 237] ?
Result: 80

Request: Given the entry SRAHQCS[Nle]ETRTCDINPAWYTG[hArg]GIRPVGRF-NH2 (linker 6-13 via L4; reading uncertain) [Conjugate 259] , report its measured GPR10 EC50.
Result: 26
